Molecular target: Human P2Y12 receptor (Homo sapiens, UniProt Q9H244)
Construct: expressed in transfected cells; host or cells: HEK cells
Sequence (Q9H244 whole entry): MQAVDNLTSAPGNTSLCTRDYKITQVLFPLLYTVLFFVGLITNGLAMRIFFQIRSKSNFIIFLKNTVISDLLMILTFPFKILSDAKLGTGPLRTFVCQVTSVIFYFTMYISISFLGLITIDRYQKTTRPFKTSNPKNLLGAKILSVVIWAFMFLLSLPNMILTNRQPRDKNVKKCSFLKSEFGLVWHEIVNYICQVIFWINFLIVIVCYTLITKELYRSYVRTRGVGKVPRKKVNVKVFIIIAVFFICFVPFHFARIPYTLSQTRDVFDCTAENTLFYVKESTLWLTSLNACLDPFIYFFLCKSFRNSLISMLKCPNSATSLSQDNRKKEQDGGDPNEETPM
Assay: Human P2Y12 receptor cell membrane binding assay with [3H] 2-Mes-ADP
Conditions: 1 nM [3H] 2-Mes-ADP, membranes of HEK cells expressing P2Y12 receptor; read-out: Binding activity (IC50)
Parameter: IC50. Scope: all listed entries.

The following compounds have reported results that may help.
compound	experimental_target	endpoint_value
CCCc1cc2c(N3CCn4c(nnc4C(F)(F)F)C3)nc(OC3CNC3)nc2s1	Human P2Y12 receptor (Homo sapiens, UniProt Q9H244)	0.149 µM
CCc1cc2c(N3CCn4c(nnc4C(F)(F)F)C3)nc(CN3CC[C@@H](O)C3)nc2s1	Human P2Y12 receptor (Homo sapiens, UniProt Q9H244)	4.21 µM
CCc1cc2c(N3CCn4cnnc4C3)nc(N3CCNC(=O)C3)nc2s1	Human P2Y12 receptor (Homo sapiens, UniProt Q9H244)	7 µM

Shifting focus to the compound that follows.
Supply IC50 measured with Human P2Y12 receptor (Homo sapiens, UniProt Q9H244) for `CCCc1cc2c(N3CCn4c(nnc4C(F)(F)F)C3)nc(N3CCc4c(nc(C)nc4C(F)(F)F)C3)nc2s1` .
0.043 µM
